# pIC50 listing for each entry below
# tested_target: class B enzyme CcrA (Bacteroides fragilis)
# Sequence (P25910 19-249): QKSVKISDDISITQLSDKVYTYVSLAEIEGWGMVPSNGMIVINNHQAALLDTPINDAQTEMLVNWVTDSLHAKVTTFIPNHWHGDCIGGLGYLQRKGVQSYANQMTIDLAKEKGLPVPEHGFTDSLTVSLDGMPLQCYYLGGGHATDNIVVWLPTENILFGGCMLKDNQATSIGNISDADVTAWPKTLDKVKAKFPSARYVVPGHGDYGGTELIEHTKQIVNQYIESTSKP
# test_description: IC50 determination, β-lactamase inhibition (nitrocefin, spectrophotometric)
# Format: biochemical
# Procedure: IC50 Determination for the Penem Inhibitor β-Lactamase inhibitory activity of the penem inhibitors was determined spectrophotometrically as described by Bush et al., [Bush, K., Macalintal, C., Rasmussen, B. A., Lee, V. and Yang, Y. Antimicrobial Agents and Chemotherapy 1993, 37, 851]. […] Initial rates of hydrolysis were monitored for 5 minutes at 495 nm using a Molecular Devices Spectra Max 250 with kinetic protocol of SoftMax Program. […]
pIC50: −log10 of the molar value. Counter-ions that a name gives are not always drawn.
measure: pIC50

[[record]]
molecule = "O=C(O)C1=CS[C@@H]2/C(=C\\c3cn4c(n3)CNCC4)C(=O)N12 [Example 3, sodium salt]"
reported_result = 6.49

[[record]]
molecule = "O=C(O)C1=CS[C@@H]2/C(=C\\c3cc4n(n3)CCS(=O)(=O)C4)C(=O)N12 [Example 24, sodium salt]"
reported_result = 8.40


----------
# tested_target: class A β-lactamase TEM-1 (Escherichia coli)
# Sequence (P62593 24-286 limits assumed): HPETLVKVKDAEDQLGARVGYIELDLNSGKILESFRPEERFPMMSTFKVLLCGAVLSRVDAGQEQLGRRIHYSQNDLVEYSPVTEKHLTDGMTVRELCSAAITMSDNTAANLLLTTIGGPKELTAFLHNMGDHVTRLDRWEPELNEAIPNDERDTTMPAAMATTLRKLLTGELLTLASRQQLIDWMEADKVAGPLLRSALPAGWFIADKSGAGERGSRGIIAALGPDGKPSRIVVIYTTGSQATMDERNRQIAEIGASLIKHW
# test_description: IC50 determination, β-lactamase inhibition (nitrocefin, spectrophotometric)
# Assay type: biochemical, E. coli
# reported_conditions: enzyme 4.3 nM; 10 minutes preincubation at 25° C.; nitrocefin 50 μg/ml; pH 7.0
Where a name gives a salt, the structure may show the parent alone.
measure: IC50 (nM)

[[record]]
compound = "O=C(O)C1=CS[C@@H]2/C(=C\\c3cn4c(n3)COCC4)C(=O)N12 [Example 7, sodium salt]"
tested_target = "class A β-lactamase TEM-1 (Escherichia coli)"
reported_result = 0.4

[[record]]
compound = "O=C(O)C1=CSC2C(=Cc3cn4c(n3)CCCCC4)C(=O)N12 (stereo not shown)"
tested_target = "class A β-lactamase TEM-1 (Escherichia coli)"
reported_result = 4.8

[[record]]
compound = "CC(=O)N1CCc2sc(/C=C3/C(=O)N4C(C(=O)[O-])=CS[C@H]34)cc2C1.[Na+] (single isomer, unassigned) [Example 34, Sodium salt]"
tested_target = "class A β-lactamase TEM-1 (Escherichia coli)"
reported_result = 4.2

[[record]]
compound = "O=C(O)C1=CSC2C(=Cc3cc4c(s3)CCOC4)C(=O)N12 (stereo not shown)"
tested_target = "class A β-lactamase TEM-1 (Escherichia coli)"
reported_result = 1.2

[[record]]
compound = "O=C(O)C1=CS[C@@H]2/C(=C\\c3cc4c(o3)CCC4)C(=O)N12 [Example 27, sodium salt]"
tested_target = "class A β-lactamase TEM-1 (Escherichia coli)"
reported_result = 2

[[record]]
compound = "CN1Cc2nc(/C=C3/C(=O)N4C(C(=O)O)=CS[C@H]34)cn2CC1=O [Example 10, sodium salt]"
tested_target = "class A β-lactamase TEM-1 (Escherichia coli)"
reported_result = 10

[[record]]
compound = "O=C(O)C1=CS[C@@H]2/C(=C\\c3cc4c(s3)CCN(Cc3ccccc3)C4)C(=O)N12"
tested_target = "class A β-lactamase TEM-1 (Escherichia coli)"
reported_result = 4.2

[[record]]
compound = "O=C([O-])C1=CS[C@@H]2/C(=C\\c3cc4n(n3)CCO4)C(=O)N12.[Na+] [Example 33, sodium salt]"
tested_target = "class A β-lactamase TEM-1 (Escherichia coli)"
reported_result = 1.1

[[record]]
compound = "O=C([O-])C1=CS[C@@H]2/C(=C\\c3cn4c(n3)CSC4)C(=O)N12.[Na+] [Example 13, sodium salt]"
tested_target = "class A β-lactamase TEM-1 (Escherichia coli)"
reported_result = 2.9

[[record]]
compound = "O=C(O)C1=CS[C@@H]2/C(=C\\c3cn4c(n3)CN(Cc3ccccc3)CC4)C(=O)N12 [Example 20, sodium salt]"
tested_target = "class A β-lactamase TEM-1 (Escherichia coli)"
reported_result = 1.4

[[record]]
compound = "O=C(O)C1=CS[C@@H]2/C(=C\\c3cc4n(n3)CCOC4)C(=O)N12"
tested_target = "class A β-lactamase TEM-1 (Escherichia coli)"
reported_result = 4.2

[[record]]
compound = "O=C([O-])C1=CS[C@@H]2/C(=C\\c3cc4n(n3)CCSC4)C(=O)N12.[Na+] [Example 11, sodium salt]"
tested_target = "class A β-lactamase TEM-1 (Escherichia coli)"
reported_result = 1

[[record]]
compound = "CN1CCc2sc(C=C3C(=O)N4C(C(=O)O)=CSC34)cc2C1 (stereo not shown)"
tested_target = "class A β-lactamase TEM-1 (Escherichia coli)"
reported_result = 12

[[record]]
compound = "O=C([O-])C1=CS[C@@H]2/C(=C\\c3cc4n(n3)CCCO4)C(=O)N12.[Na+] [Example 36, sodium salt]"
tested_target = "class A β-lactamase TEM-1 (Escherichia coli)"
reported_result = 6.3

[[record]]
compound = "O=C(O)C1=CS[C@@H]2/C(=C\\c3cc4n(n3)CCOC4=O)C(=O)N12"
tested_target = "class A β-lactamase TEM-1 (Escherichia coli)"
reported_result = 2.5

[[record]]
compound = "O=C(O)C1=CS[C@@H]2/C(=C\\c3cc4c(s3)CCN(C(=O)Cc3ccccc3)C4)C(=O)N12"
tested_target = "class A β-lactamase TEM-1 (Escherichia coli)"
reported_result = 4.6


Source listed as patent US7812014B2.
